# system: T1, wild type human CD47 (Acro Biosystems, cat. no. CD7-H5227) (human, UniProt Q08722 19-139)
# T1 construct: Bought protein used as SPR analyte; also called Human CD47 wt; wild-type CD47
# T1 sequence (Q08722 19-139 limits assumed): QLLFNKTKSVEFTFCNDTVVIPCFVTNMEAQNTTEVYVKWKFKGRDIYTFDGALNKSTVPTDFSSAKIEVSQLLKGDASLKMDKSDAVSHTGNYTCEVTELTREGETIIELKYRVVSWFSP
# method-notes: SPR, IgG captured, CD47 in flow; exp 1;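 note: biacore T200 SPR using IgG from supernatants of transfected HEK293 cells, rate constants fitted to association and dissociation curves, Kd derived from koff over kon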
parameter-measured: koff (s⁻¹)
Could you give me the number in s⁻¹? Just the number is fine.

Examples from the recorded data:
INSERT INTO results (binder, parameter_measured, unit_tag, quantitative_readout) VALUES
  ('108VH5.M9 / 108VL1.M5 (antibody, human IgG4 S228P, kappa, V domains shown, Full-length IgG4 (S228P), kappa; also called VH5.M9 VL1.M5) VH: EVQLVQSGAEVKKPGASVKVSCKASGYSFTHHWIHWVRQAPGQGLEWMGMIDASDSETRLSQKFQGRVTMTRDTSTSTVYMELSSLRSEDTAVYYCARLGRYYFDYWGQGTLVTVSS VL: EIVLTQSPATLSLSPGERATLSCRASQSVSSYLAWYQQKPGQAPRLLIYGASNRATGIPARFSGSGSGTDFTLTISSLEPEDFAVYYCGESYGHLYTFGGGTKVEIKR', 'koff', 's⁻¹', 0.0014),
  ('108VH4.M4-VL1.M1 (antibody, V domains shown, also called original humanized 108C10A6 antibody) VH: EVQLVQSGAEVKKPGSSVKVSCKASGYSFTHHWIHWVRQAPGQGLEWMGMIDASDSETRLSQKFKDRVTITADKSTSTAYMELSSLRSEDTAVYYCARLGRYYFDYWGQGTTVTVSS VL: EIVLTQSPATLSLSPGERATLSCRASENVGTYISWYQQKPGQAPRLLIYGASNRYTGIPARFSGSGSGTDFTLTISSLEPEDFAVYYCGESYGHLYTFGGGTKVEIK', 'koff', 's⁻¹', 0.00042),
  ('108VH5 / 108VL1.M5 (antibody, human IgG4 S228P, kappa, V domains shown, Full-length IgG4 (S228P), kappa; also called VH5 VL1.M5) VH: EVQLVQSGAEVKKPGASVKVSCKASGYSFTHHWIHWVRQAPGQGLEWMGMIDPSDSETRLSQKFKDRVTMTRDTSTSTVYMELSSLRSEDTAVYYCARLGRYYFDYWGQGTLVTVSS VL: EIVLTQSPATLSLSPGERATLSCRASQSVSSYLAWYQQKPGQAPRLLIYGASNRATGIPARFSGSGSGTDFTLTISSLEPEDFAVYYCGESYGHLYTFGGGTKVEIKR', 'koff', 's⁻¹', 0.00065),
  ('chimeric antibody 108C10A6 (antibody, V domains shown, Chimeric antibody with mouse variable domains; captured through human Fc; also called VH / VL) VH: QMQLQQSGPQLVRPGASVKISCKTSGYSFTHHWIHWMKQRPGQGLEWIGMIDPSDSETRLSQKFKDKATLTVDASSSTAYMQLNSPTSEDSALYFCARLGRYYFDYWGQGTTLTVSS VL: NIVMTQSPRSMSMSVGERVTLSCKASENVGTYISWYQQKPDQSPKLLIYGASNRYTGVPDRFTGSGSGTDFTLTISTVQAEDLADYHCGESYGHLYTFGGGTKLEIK', 'koff', 's⁻¹', 0.00032);

API: the following record is the query input.
Lookup result for 108VH5.M5 / 108VL1.M5 (antibody, human IgG4 S228P, kappa, V domains shown, Full-length IgG4 (S228P), kappa; also called VH5.M5 VL1.M5) VH: EVQLVQSGAEVKKPGASVKVSCKASGYTFTHHWIHWVRQAPGQGLEWMGMIDASDSETRLSQKFKDRVTMTRDTSTSTVYMELSSLRSEDTAVYYCARLGRYYFDYWGQGTLVTVSS VL: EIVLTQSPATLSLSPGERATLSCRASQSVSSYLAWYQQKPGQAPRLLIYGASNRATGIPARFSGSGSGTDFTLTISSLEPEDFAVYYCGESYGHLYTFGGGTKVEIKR ; measured koff: 0.00096
